From: patent US20240376084A1

target: UniProtKB P09616
Sequence (P09616 27-319 limits assumed): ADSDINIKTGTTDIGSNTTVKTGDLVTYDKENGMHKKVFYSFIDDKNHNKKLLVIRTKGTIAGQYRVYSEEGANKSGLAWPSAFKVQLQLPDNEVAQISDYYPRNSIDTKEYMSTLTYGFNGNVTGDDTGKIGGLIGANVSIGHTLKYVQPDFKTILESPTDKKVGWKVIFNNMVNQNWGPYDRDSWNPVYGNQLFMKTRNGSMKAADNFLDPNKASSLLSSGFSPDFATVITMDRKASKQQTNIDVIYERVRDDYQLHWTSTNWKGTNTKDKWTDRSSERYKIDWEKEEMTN
pIC50: −log10 of the molar value.
pIC50: recorded values

molecule	pIC50
Cc1cc2[nH]c(=O)c(=O)[nH]c2cc1S(=O)(=O)Nc1cc(C)c(-c2ccco2)c(C)c1 [Compound 16]	> 7.52
Cc1cc2[nH]c(=O)c(=O)[nH]c2cc1S(=O)(=O)Nc1ccc(-c2cncnc2)c(Cl)c1 [Compound 66]	7.00 to 7.52
O=c1[nH]c2cc(Cl)c(S(=O)(=O)Nc3ccc(C(F)(F)F)cc3)cc2[nH]c1=O [Compound 93]	6.00 to 7.00
O=c1[nH]c2cc(Cl)c(S(=O)(=O)Nc3ccc4c(c3)CCCC4)cc2[nH]c1=O [Compound 174]	6.00 to 7.00
